# Tested on: Mus musculus
# EXPERIMENT SUMMARY: Toxicity in ICR mouse xenografted with mouse S180 cells assessed as increase in spleen index at 8.9 umol/kg
# Type: organism-based, CCRF S-180
# CONDITION INFO: in vivo
Peptide text beside a SMILES is read from it. * marks the point of attachment. OBn = c1ccc(CO*)cc1
Below, each entry is listed with its recorded Activity.
Respond numerically, and do not add a unit to the figure.

// worked examples, Activity included
NC(=O)CC[C@H](NC(=O)[C@H](Cc1c[nH]c2ccccc12)NC(=O)[C@@H](N)Cc1c[nH]c2ccccc12)C(=O)OCc1ccccc1 (H-Trp-Trp-Gln-OBn); 7.96
CC[C@H](C)[C@H](NC(=O)[C@H](Cc1c[nH]c2ccccc12)NC(=O)[C@@H](N)Cc1c[nH]c2ccccc12)C(=O)OCc1ccccc1 (H-Trp-Trp-Ile-OBn); 8.12

Provide one value: measured Activity of NC(=O)C[C@H](NC(=O)[C@H](Cc1c[nH]c2ccccc12)NC(=O)[C@@H](N)Cc1c[nH]c2ccccc12)C(=O)OCc1ccccc1 (H-Trp-Trp-Asn-OBn)
7.81

Report measured Activity; entry is C[C@H](NC(=O)[C@H](Cc1c[nH]c2ccccc12)NC(=O)[C@@H](N)Cc1c[nH]c2ccccc12)C(=O)OCc1ccccc1 (H-Trp-Trp-Ala-OBn)
7.59

###

# Tested on: Mus musculus
# EXPERIMENT SUMMARY: Toxicity in ICR mouse xenografted with mouse S180 cells assessed as increase in spleen index at 8.9 umol/kg
# Type: organism-based, CCRF S-180
# CONDITION INFO: in vivo
Peptide text beside a SMILES is read from it. * marks the point of attachment. OBn = c1ccc(CO*)cc1
Measured Activity, listed per entry for reference.
Hey, just send me the number, nothing else.

N[C@@H](Cc1c[nH]c2ccccc12)C(=O)N[C@@H](Cc1c[nH]c2ccccc12)C(=O)N[C@@H](CO)C(=O)OCc1ccccc1 (H-Trp-Trp-Ser-OBn); 7.59
C[C@@H](O)[C@H](NC(=O)[C@H](Cc1c[nH]c2ccccc12)NC(=O)[C@@H](N)Cc1c[nH]c2ccccc12)C(=O)OCc1ccccc1 (H-Trp-Trp-Thr-OBn); 8.21
N[C@@H](Cc1c[nH]c2ccccc12)C(=O)N[C@@H](Cc1c[nH]c2ccccc12)C(=O)N[C@@H](Cc1ccccc1)C(=O)OCc1ccccc1 (H-Trp-Trp-Phe-OBn); 7.96

Please give measured Activity of the following entry: N[C@@H](Cc1c[nH]c2ccccc12)C(=O)N[C@@H](Cc1c[nH]c2ccccc12)C(=O)N[C@@H](Cc1ccc(O)cc1)C(=O)OCc1ccccc1 (H-Trp-Trp-Tyr-OBn)
7.5

Please supply the value of reported Activity for the item N[C@@H](Cc1c[nH]c2ccccc12)C(=O)N[C@@H](Cc1c[nH]c2ccccc12)C(=O)NCC(=O)OCc1ccccc1 (H-Trp-Trp-Gly-OBn)
8.11

###

# Test system: CCRF S-180
# EXPERIMENT SUMMARY: Antitumor activity against mouse S180 cells xenografted in ICR mouse assessed as tumor growth inhibition at 8.9 umol/kg, ip administered 1 day after tumor inoculation qd for 7 days
# Format: functional
# CONDITION INFO: CCRF S-180, ip, read-out: GI
Peptide text beside a SMILES is read from it. * marks the point of attachment. OBn = c1ccc(CO*)cc1
inhibition in vivo at 8.9 µmol/kg of 20% or higher: criterion met. Under 20%: criterion not met.

For orientation, consider the following solved cases.
C[C@H](NC(=O)[C@H](Cc1c[nH]c2ccccc12)NC(=O)[C@@H](N)Cc1c[nH]c2ccccc12)C(=O)OCc1ccccc1 (H-Trp-Trp-Ala-OBn); criterion met
Nc1ccn([C@@H]2O[C@H](CO)[C@@H](O)[C@@H]2O)c(=O)n1 [CYTARABINE]; criterion met
CC(C)[C@H](NC(=O)[C@H](Cc1c[nH]c2ccccc12)NC(=O)[C@@H](N)Cc1c[nH]c2ccccc12)C(=O)OCc1ccccc1 (H-Trp-Trp-Val-OBn); criterion met
CSCC[C@H](NC(=O)[C@H](Cc1c[nH]c2ccccc12)NC(=O)[C@@H](N)Cc1c[nH]c2ccccc12)C(=O)OCc1ccccc1 (H-Trp-Trp-Met-OBn); criterion not met

Next compound, please.
Kindly determine if inhibition in vivo at 8.9 µmol/kg recorded for N[C@@H](Cc1c[nH]c2ccccc12)C(=O)N[C@@H](Cc1c[nH]c2ccccc12)C(=O)N[C@@H](CO)C(=O)OCc1ccccc1 (H-Trp-Trp-Ser-OBn) is above or exactly 20%.
criterion not met

Origin of values: ChEMBL document CHEMBL1806449
